# measured.target: hMPC-1/hMPC-2 (Homo sapiens, UniProt O95563+Q9Y5U8)
# Construct: HA tag (hemagglutinin, […]) (N); HA tag (hemagglutinin, […]) (N, cleaved yes); 10x His tag (N, cleaved yes); made in house; host or cells: Sf9 (Spodoptera frugiperda), baculovirus; proteins purified singly, mixed 1:1, then FLAG-resin
# Sequence (Q9Y5U8 whole entry, one chain of several): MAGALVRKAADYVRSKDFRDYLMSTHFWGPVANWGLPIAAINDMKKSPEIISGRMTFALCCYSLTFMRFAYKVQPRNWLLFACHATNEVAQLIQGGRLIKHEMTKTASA
# test.name: Fluorescence quenching binding assay, purified hMPC-1/hMPC-2 hetero-complex
# measurement.setup: hMPC-1/hMPC-2 in DDM micelles, room temperature, fluorescence at 338 nm, n = 3; read-out: Dissociation constant (Kd)
measured.metric: Kd (mM)
Answers are plain numbers, in mM.

Look at each compound and report its Kd.
1. CC(=O)C(=O)O [Pyruvate]
2. CCc1ccc(CCOc2ccc(CC3SC(=O)NC3=O)cc2)nc1 (centres unmarked)

1: 8.91; 2: 0.0603

---

# measured.target: hMPC-2 (Homo sapiens, UniProt O95563)
# Construct: HA tag (hemagglutinin, […]) (N, cleaved yes); 10x His tag (N, cleaved yes); made in house; host or cells: Sf9 (Spodoptera frugiperda), baculovirus
# Sequence (O95563 1-127): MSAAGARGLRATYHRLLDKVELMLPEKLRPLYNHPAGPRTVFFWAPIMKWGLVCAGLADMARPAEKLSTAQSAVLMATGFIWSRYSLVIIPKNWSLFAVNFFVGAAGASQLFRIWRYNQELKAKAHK
# test.name: Fluorescence quenching binding assay, purified hMPC-2 homo-complex
# measurement.setup: hMPC-2 in DDM micelles, room temperature, fluorescence at 338 nm, n = 3; read-out: Dissociation constant (Kd)
measured.metric: Kd (mM)
Give bare numbers, in mM.

Look at each compound and report its Kd.
1. CC(=O)C(=O)O [Pyruvate]
2. CCc1ccc(CCOc2ccc(CC3SC(=O)NC3=O)cc2)nc1 (centres unmarked) [Pioglitazone]

[12.9, 0.0993]
